assay: physchem; conditions: pH 11.8, aqueous buffer, thermodynamic from solid
test_readout: solubility at 1 min

Incoming: Need solubility at 1 min of CN(CCOc1ccc(CC2SC(=O)NC2=O)cc1)c1ccccn1 (stereo not shown) [Base] , thanks.
Outgoing: > 50 mg/mL
